Ref: PubChem BioAssay

experimental_protocol: small-molecule microarray binders of probe aLefty2, primary screen, biochemical, biotinylated probe, 635/667 nm fluorescence (AID 1094);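 note: score merges spot fluorescence near 667 nm with spot signal-to-noise ratio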
particulars: higher = more signal
Category key, based on recorded composite z-score: A: < -0.007; B: ≥ -0.007 and < 0.2; C: ≥ 0.2

| compound | assigned_class |
| --- | --- |
| COc1ccccc1CN1C(=O)c2ccccc2[C@](Cc2ccccc2I)(C(=O)NCC(F)(F)F)[C@@H]1c1ccc(CO)cc1 | B |
| COC(=O)[C@@]1(Cc2ccccc2)[C@H]2c3cc(C(=O)N(C)C)n(Cc4c(CO)[nH]cc(C)c4=O)c3C[C@H]2CN1C(=O)c1ccccc1 | B |
| C=CCC(OC(C)=O)[C@@H]1[C@@H](N(Cc2cccc3ccccc23)C(=O)Cc2ccc(F)cc2)c2cc(OCCCO)ccc2N1C(=O)c1ccc2ccccc2n1 (stereo not given in full) | B |
| COC(=O)[C@@]1(Cc2ccc(OC)cc2)[C@H]2c3cc(C(=O)N(C)C)n(CCO)c3C[C@H]2CN1C(=O)c1ccccc1 | C |
| Cc1cc(C)c(C(O)C2C=CC3C(=O)NC(=O)C3N2Nc2ccc(Cl)cc2Cl)c(C)c1 (stereo not given) | B |
| Cc1ccc(S[C@]2(C(=O)NCCCN(C)C)CC(=O)N(C3CCCCC3)[C@@H]2c2ccc(CO)cc2)cc1 | B |
| CN1C(=O)C2C=CC(C(O)c3ccc(F)cc3)N(Nc3ccccc3)C2C1=O (stereo not given) | B |
| C=CC1c2cc(O)c(OC)cc2CCN1Cc1cc2c(cc1Br)OCO2 (stereo not given) | C |
| O=c1n(-c2ccccc2)c(=O)n2n1CC(COc1ccccc1)=C([C@H](O)CCc1ccccc1)[C@@H]2CO | A |
| CCCCC(O)C1C=CC2C(=O)N(c3ccccc3)C(=O)C2N1Nc1ccc(C(C)C)cc1 (stereo not given) | A |
| C#CCN([C@@H](Cc1ccc(O)cc1)C(=O)OC)[C@@H](/C=C/C1CC1)[C@H](O)Cc1ccccc1 | A |
| CC=CC(O)C1C=CC2C(=O)N(c3ccccc3)C(=O)C2N1Nc1ccccc1F (stereo not given) | C |
| O=C(CS)NCCCCCCNC(=O)[C@H]1C[C@H]2C(=O)N[C@@H](Cc3ccccc3)C(=O)N2[C@H]1c1ccc(O)cc1 | A |

---

Below, each of the molecules is paired with its reported z-score value.
experimental_protocol: E. coli DRC41 culture turbidity changes, primary screen, E. coli filamentation inducer project, strain DRC41, OD650, 48 h (AID 1152);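 note: E. coli MC1000 strain DRC41 lacking acrAB efflux pump and sulA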
particulars: E. coli DRC41 (acrAB sulA), higher = more signal, called active from +8 up or from −8 down

| molecule | z-score |
| --- | --- |
| COC(=O)[C@@]1(Cc2ccc(OC)cc2)[C@H]2c3cc(C(=O)N4CCCC4)n(Cc4cccc5ccccc45)c3C[C@H]2CN1C(=O)c1ccccc1 | -0.492 |
| COC(=O)[C@@]1(Cc2ccc(F)cc2)[C@H]2c3cc(C(=O)N(C)C)n(CCc4ccc(O)c(OC)c4)c3C[C@H]2CN1C(=O)c1ccccc1 | -1.22 |
| Cc1ccc(S[C@]2(C(=O)NCC(F)(F)F)CC(=O)N(C3CCCCC3)[C@@H]2c2ccc(CO)cc2I)cc1 | 0.439 |
| [N-]=[N+]=Nc1ccccc1[C@@H]1OC(c2ccc(OCCCO)cc2)=N[C@]1(Cc1ccccc1)C(=O)NCC(O)CO (stereo partly drawn) | 0.792 |
| O=C(NCC(F)(F)F)[C@@H]1c2ccccc2C(=O)N(Cc2ccccc2C(F)(F)F)[C@H]1c1ccc(CO)cc1 | 0.142 |
| CC(C)[Si](C#CCCCC#N)(O[C@H](c1ccccc1)c1cn([C@H](CO)Cc2ccccc2)nn1)C(C)C | 1.72 |
| O=C(NCCCCCNC(=O)/C(Cc1ccccc1)=N/O)OCc1ccccc1 | 2 |
| COCCCNC(=O)[C@@]1(Cc2ccccc2CN=[N+]=[N-])N=C(c2ccc(OCCCO)cc2)O[C@H]1c1ccccc1 | -0.314 |
| CC(C)C[C@@H]1NC(=O)[C@@H]2C[C@H](C(=O)NCCCCCN)[C@H](c3ccc(O)cc3)N2C1=O | -0.899 |
| COc1ccc([Si](C)(C)[C@@H]2[C@@H](CC(=O)N(CCO)Cc3ccccc3)O[C@]3(C(=O)N(c4ccccc4)c4ccccc43)[C@H]2C)cc1 | 1.3 |
| CN(C)C(=O)[C@@]1(Cc2ccccc2CN=[N+]=[N-])N=C(c2ccc(OCCCO)cc2)O[C@H]1c1ccccc1CN=[N+]=[N-] | -0.395 |
| CCOC(=O)C[C@H]1[C@H](OC(=O)c2cc3ccccc3oc2=O)[C@@H](NC(=O)Cc2ccc(OC)cc2)c2cc(OCCCO)ccc2N1C(=O)c1ccc2ccccc2n1 | 0.96 |
| COc1cc2c(cc1OC)CN(C(=O)[C@@H]1[C@H]3C(=O)O[C@H](c4ccccc4)[C@H](c4ccccc4)N3[C@H](c3ccc(OCCO)cc3)[C@@]13C(=O)Nc1ccccc13)CC2 | 0.547 |
| [N-]=[N+]=Nc1ccccc1[C@H]1OC(c2ccc(OCCCO)cc2)=N[C@@]1(Cc1ccccc1)C(=O)N1CCCCC1 | 0.546 |
| C=C(/C(=C/C[C@@H](OC(C)=O)c1cccc(OCCO)c1)c1cc(C(=O)OC)ccc1OC)C(C)C | 0.546 |
| COc1cc2c(cc1O)C(C)N(Cc1ccc([N+](=O)[O-])o1)CC2 (stereo not drawn) | -0.984 |
| CC=CC(O)C1C=CC2C(=O)N(c3ccccc3)C(=O)C2N1Nc1ccccc1F (stereo not drawn) | -0.857 |
| COCCOC(=O)N1C(=O)[C@@]2(c3cc(C#CC4(O)CCCCCC4)ccc31)[C@H](c1ccc(O)cc1)N1[C@H](c3ccccc3)[C@H](c3ccccc3)OC(=O)[C@H]1[C@@H]2C(=O)NC[C@H](O)c1ccccc1 | -0.686 |
| NCCCCCNC(=O)[C@@H]1C[C@@H]2C(=O)NCC(=O)N2[C@@H]1c1cccc(OCCO)c1 | 1.81 |
| O=C(CS)NCCCCCNC(=O)[C@@H]1C[C@@H]2C(=O)N3CCC[C@H]3C(=O)N2[C@@H]1c1cccc(OCCO)c1 | -1.26 |
| C[N+](C)(C)CCCCCCNC(=O)[C@H]1C[C@H]2C(=O)NCC(=O)N2[C@H]1c1ccc(O)cc1 | 0.16 |
| COCCOC(=O)N1C(=O)[C@@]2(c3cc(C#CC4=CCCCC4)ccc31)[C@H](c1ccccc1OCCO)N1[C@H](c3ccccc3)[C@H](c3ccccc3)OC(=O)[C@H]1[C@@H]2C(=O)N1CCCCCCC1 | -1.05 |
| CCCCCCc1nc(C2CC2)cc2c1[Si](C(C)C)(C(C)C)OC2 | -0.611 |
| CC(CO)N1C(=O)[C@@H]2[C@H]3C(=O)OCC=C[C@H]3OC23C=CCN(CCN2CCOCC2)C(=O)[C@@H]13 (stereo partly drawn) | -1.06 |
| C=CCC(OC(C)=O)[C@@H]1[C@@H](N(Cc2cccc3ccccc23)C(=O)Cc2ccc(F)cc2)c2cc(OCCCO)ccc2N1C(=O)c1ccc2ccccc2n1 (stereo partly drawn) | 0.518 |
| CC(=O)NCCCC[C@@H]1NC(=O)[C@H]2C[C@@H](C(=O)NCCCC[N+](C)(C)C)[C@@H](c3cccc(OCCO)c3)N2C1=O | 0.485 |
| COC(=O)[C@@]1(Cc2ccc(F)cc2)[C@H]2c3cc(C(=O)N(C)C)n(Cc4cc(F)cc5c4OCOC5)c3C[C@H]2CN1C(=O)c1ccccc1 | -0.62 |
| COC(=O)[C@@]1(Cc2ccc(OC)cc2)[C@H]2c3cc(C(=O)N(C)C)n(Cc4ccc(Cl)c(C(F)(F)F)c4)c3C[C@H]2CN1C(=O)c1ccccc1 | -1.4 |

---

Tested on: Sonic hedgehog protein (Shh)
experimental_protocol: small-molecule binders of Shh protein, primary screen, biochemical, small-molecule microarray, 635/667 nm fluorescence (AID 1151);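 note: Shh protein binding to compounds spotted on small-molecule microarray slides; score combines spot fluorescence intensity with signal-to-noise across triplicate slides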
particulars: small-molecule microarray binding, 635 nm fluorescence; higher = more signal

| compound | composite z-score |
| --- | --- |
| CCOC(=O)C[C@H]1[C@H](OC(=O)c2ccccc2-c2ccccc2)[C@@H](NC(=O)C2CCCCC2)c2cc(OCCCO)ccc2N1C(=O)Cc1ccc(OC)cc1 | -0.0275 |
| CC1CC/C=C\[C@H]2OC34C=CCN(C(C)C)C(=O)[C@H]3N(CCCCCCO)C(=O)[C@@H]4C2C(=O)O1 (stereo partly drawn) | -0.159 |
| NC(=O)NCC#Cc1ccc2c(c1)[C@]1(C(=O)N2)[C@H](C(=O)NC[C@H](O)c2ccccc2)[C@H]2C(=O)O[C@H](c3ccccc3)[C@H](c3ccccc3)N2[C@@H]1c1ccc(OCCO)cc1 | 0.728 |
| COc1ccc([Si](C)(C)[C@@H]2[C@@H](CC(=O)N3Cc4ccccc4C[C@H]3CO)O[C@]3(C(=O)N(C)c4ccccc43)[C@H]2C)cc1 | 2.03 |
| CO[C@]12C=C(Br)[C@@H](C[C@@H]1c1cccc(C)c1)[C@@]1(CO1)C2=O | 0.841 |
| C=CCN1C(=O)[C@@]2(CCS(=O)(=O)c3ccccc3)N=C(c3ccc(OCCCO)cc3)O[C@H]2c2ccccc21 | 2.07 |
| COC(=O)[C@@]1(Cc2ccccc2N=[N+]=[N-])N=C(c2ccc(OCCCO)cc2)O[C@H]1c1ccccc1N=[N+]=[N-] | 0.58 |
| CC1CC/C=C\[C@H]2OC34C=CCN(c5ccc(Cl)cc5)C(=O)[C@H]3N(CCCCCO)C(=O)[C@]4(C)C2C(=O)O1 (stereo partly drawn) | -0.449 |
| NC(=O)N1C(=O)C2C(C1=O)C1C=C(CCCO)C2C(c2cccs2)N1Cc1cccc(OC(F)(F)F)c1 (stereo not drawn) | 1.4 |
| Cc1ccc(S[C@]2(C(=O)NCCCN(C)C)CC(=O)N(C3CCCCC3)[C@@H]2c2ccc(CO)cc2)cc1 | -0.728 |
| CC(CO)N1C(=O)[C@@H]2[C@H]3C(=O)OCC=C[C@H]3OC23C=CCN(Cc2ccccc2)C(=O)[C@@H]13 (stereo partly drawn) | -0.0627 |
| CC(c1ccccc1)C(O)C1C=CC2C(=O)N(c3ccccc3)C(=O)C2N1Nc1ccc([N+](=O)[O-])cc1 (stereo not drawn) | 0.513 |
| COC(=O)C(CC#Cc1ccc2c(c1)[C@]1(C(=O)N2)[C@H](c2ccccc2OCCO)N2[C@H](c3ccccc3)[C@H](c3ccccc3)OC(=O)[C@H]2[C@@H]1C(=O)NC[C@H](O)c1ccccc1)C(=O)OC | 1.22 |
| COc1ccc(-c2nc(-c3ccccc3)c3c(c2C)CO[Si]3(C(C)C)C(C)C)cn1 | 0.848 |
| COc1cc(CO)cc(I)c1O[C@H]1C=C(C(=O)NCCO)C[C@@H](NCc2ccc(F)cc2)[C@@H]1O | 0.591 |
| CN(C)C(=O)[C@@]1(Cc2ccccc2CN=[N+]=[N-])N=C(c2ccc(OCCCO)cc2)O[C@H]1c1ccccc1CN=[N+]=[N-] | -0.304 |
| Cc1ccc(S[C@]2(C(=O)O)CC(=O)N(Cc3ccccc3Cl)[C@@H]2c2ccc(CO)cc2I)cc1 | 0.0254 |
| COCCOC(=O)N1C(=O)[C@@]2(c3cc(C#CC4(O)CCCCCC4)ccc31)[C@H](c1ccc(O)cc1)N1[C@H](c3ccccc3)[C@H](c3ccccc3)OC(=O)[C@H]1[C@@H]2C(=O)NC[C@H](O)c1ccccc1 | 1.21 |
| COC(=O)CCCCCCC(=O)Nc1ccc(NC(=O)CCCC[P+](c2ccccc2)(c2ccccc2)c2ccccc2)cc1 | 1.89 |
| C=C(C)C1CCC(C(O)C2C=CC3C(=O)N(C)C(=O)C3N2N2CCCCC2)CC1 (stereo not drawn) | 0.758 |
| O=C1C2C=CC(C(O)c3ccc(F)cc3)N(n3cnnc3)C2C(=O)N1Cc1ccccc1 (stereo not drawn) | -0.428 |
| CN(C)CCCNC(=O)[C@@H]1c2ccccc2C(=O)N(Cc2ccccc2Cl)[C@H]1c1ccc(CO)cc1 | -0.12 |
| [N-]=[N+]=Nc1ccccc1C[C@]1(C(=O)N2CCOCC2)N=C(c2ccc(OCCCO)cc2)O[C@H]1c1ccccc1 | 0.276 |
| O=C1O[C@H](c2ccccc2)[C@H](c2ccccc2)N2[C@H]1[C@@H](C(=O)Nc1nc3ccccc3s1)[C@]1(C(=O)Nc3ccccc31)[C@H]2c1ccc(OCCO)cc1 | 1.5 |
| COC(=O)[C@@]1(Cc2ccccc2)[C@H]2c3cc(C(=O)N(C)C)n(Cc4c(CO)[nH]cc(C)c4=O)c3C[C@H]2CN1C(=O)c1ccccc1 | -0.842 |
| CN(C)C(=O)[C@]1(CCS(=O)(=O)c2ccccc2)N=C(c2ccc(OCCCO)cc2)O[C@@H]1c1ccccc1N=[N+]=[N-] | 0.605 |
| COCCOC(=O)N1C(=O)[C@@]2(c3ccccc31)[C@H](C(=O)N1CCN(c3ncccn3)CC1)[C@H]1C(=O)O[C@H](c3ccccc3)[C@H](c3ccccc3)N1[C@@H]2c1ccc(O)cc1 | 1.07 |
| C=CCC(OC(C)=O)[C@@H]1[C@@H](N(Cc2cc3ccccc3o2)C(=O)c2ccc(-c3ccccc3)cc2)c2cc(OCCCO)ccc2N1C(=O)c1ccc2ccccc2c1 (stereo partly drawn) | 1.12 |
